Assay: Plasma pharmacokinetics after single oral dose in ORA-Plus or SyrSpend SF (Example 6), LC-MS/MS
Format: in vivo, Sprague Dawley rats
Conditions: female, Sprague Dawley, rat, plasma, po, 24 mg/kg, G3: 2HCl, 24 mg/kg single oral dose, ORA-plus, rat plasma
measured metric: AUC(0-inf) (ng·h/mL)
Write it as a number; the unit ng·h/mL goes unstated.

AUC(0-inf) in this record for CC(C)(C)CNCCn1c(Sc2cc3c(cc2I)OCO3)nc2c(N)ncnc21 [Compound 2 2HCl] : 1340

----------
Test: Plasma pharmacokinetics after single PO or IV administration (Example 5), LC-MS/MS
Conditions: female, Sprague-Dawley, rat, plasma, iv, 12 mg/kg, Cmax (ng/mL) Mean ± StdDev, Group 9: 12 mg/kg IV, 5 mM Citric acid buffer + 15% Captisol; free base
measured metric: Cmax (µg/mL)
Give a bare numeral; the unit µg/mL is implied.

In plain terms, CC(C)(C)CNCCn1c(Sc2cc3c(cc2I)OCO3)nc2c(N)ncnc21 [Compound 2] has a documented Cmax of 2.36

# credit: patent US20200069592A1
